- testTarget: human GLP-1 receptor (human, UniProt P43220 24-463)
- measurementNotes: cell-based or functional assay
*1 amine or outer side, *2 acyl side, *3 side chain or, on linkers, in order; H or OH if unused. Where no end group is shown, it is not given here. Side-chain parts run from the residue outwards. [ ]: non-standard residue; d: D form. The star is where a group is joined. Dodecanoyl(12-OPh(4-COOH)) = O=C(O)c1ccc(OCCCCCCCCCCCC(=O)*)cc1; Undecanoyl(11-OPh(4-COOH)) = O=C(O)c1ccc(OCCCCCCCCCCC(=O)*)cc1; Decanoyl(10-(4-HOOC-PhO)) = O=C(O)c1ccc(OCCCCCCCCCC(=O)*)cc1; γGlu = O=C(O)[C@H](CCC(=O)[*:2])N[*:1]; εLys = N[C@@H](CCCCN[*:1])C(=O)[*:2]; 13‑carboxytridecanoyl = C14 diacid; AEEA = NCCOCCOCC(=O)O; Aib = CC(C)(N)C(=O)O
In vitro potency (AlphaScreen cAMP; membranes) EC50 for assorted binders
State the value with its unit after it.

Solved cases (3 shown):
INSERT INTO measurements (binder, endpointresult) VALUES
  ('H[Aib]EGTFTSDVSK([εLys-Ser-Ser-Ser-Ser-Ser-Ser-γGlu-Undecanoyl(11-OPh(4-COOH))])YLEGQAAK([εLys-Ser-Ser-Ser-Ser-Ser-Ser-γGlu-Undecanoyl(11-OPh(4-COOH))])EFIAWLVQGRG', '0.181 nM'),
  ('H[Aib]EGTFTSDVSK([Ser-Ser-Ser-Ser-Ser-Ser-γGlu-Undecanoyl(11-OPh(4-COOH))])YLEGQAAK([Ser-Ser-Ser-Ser-Ser-Ser-γGlu-Undecanoyl(11-OPh(4-COOH))])EFIAWLVQGRG', '0.146 nM'),
  ('HXEGTFTSDVSSYLEGQAAKEFIAWLVHGRK (Aib at 8; eps-amino of Lys26 and Lys37 each acylated with 13-carboxytridecanoyl-gGlu-Ser-Ser-Gly-Ser-Ser-Gly)', '0.145 nM');

Exercise: # lookup: In vitro potency (AlphaScreen cAMP; membranes) EC50 of H[Aib]EGTFTSDVSK([AEEA-AEEA-γGlu-Decanoyl(10-(4-HOOC-PhO))])YLEEQAAK([AEEA-AEEA-γGlu-Decanoyl(10-(4-HOOC-PhO))])EFIAWLVQGRG [Comparative compound of Example 7a: Compound of Example 2, Chem. 21, in WO 2012/062803]
Key: 0.395 nM

Exercise: Also need H[Aib]EGTFTSDVSK([Gly-Ser-Ser-Gly-Ser-Ser-γGlu-Dodecanoyl(12-OPh(4-COOH))])YLEGQAAK([Gly-Ser-Ser-Gly-Ser-Ser-γGlu-Dodecanoyl(12-OPh(4-COOH))])EFIAWLVQGRG , thanks.
Key: 0.314 nM

Exercise: Another binder to check: H[Aib]EGTFTSDVSK([AEEA-AEEA-γGlu-13‑carboxytridecanoyl])YLEEQAVREFIAK([AEEA-AEEA-γGlu-13‑carboxytridecanoyl])LVRGRG [Comparative compound of Example 6a: Compound of Example 74, Chem. 93, in WO 2012/062803]
Key: 0.062 nM

Exercise: Another binder: H[Aib]EGTFTSDVSK([Gly-Ser-Ser-Gly-Ser-Ser-Gly-Ser-Ser-Gly-Ser-Ser-γGlu-Undecanoyl(11-OPh(4-COOH))])YLEGQAAK([Gly-Ser-Ser-Gly-Ser-Ser-Gly-Ser-Ser-Gly-Ser-Ser-γGlu-Undecanoyl(11-OPh(4-COOH))])EFIAWLVQGRG
Key: 0.171 nM

Exercise: Item: HXEGTFTSDVSSYLEGQAAKEFIAHLVQGRK (Aib at 8; eps-amino of Lys26 and Lys37 each acylated with 10-(4-carboxyphenoxy)decanoyl via the gGlu-2xOEG linker (as Example 2, only the linker differs)) [Comparative compound of Example 2a: Compound of Example 17, Chem. 36, in WO 2011/080103]
Key: 0.582 nM
